- ASSAY REMARKS: Plasma concentration after multiple injections in NHP
- Assay type: in vivo, cynomolgus monkeys
- ASSAY CONTEXT: cynomolgus monkey, in vivo, sc, 4 mg/kg
MEASUREMENT TYPE: Cmax

Reported Cmax, molecule CC[C@H](C)[C@H](NC(=O)[C@H](N)Cc1ccc(O)cc1)C(=O)N[C@H]1CSSC[C@@H](C(=O)N(C)[C@H](C(N)=O)[C@@H](C)CC)NC(=O)[C@H](CCCNC(=N)N)NC(=O)[C@H](Cc2c[nH]cn2)NC(=O)[C@H](C)NC(=O)CN(C)C(=O)[C@H](Cc2c[nH]c3ccccc23)NC(=O)[C@H](CC(=O)O)NC(=O)[C@H](CCC(N)=O)NC(=O)[C@H](Cc2cn(C)c3ccccc23)NC(=O)[C@H](C(C)C)NC1=O [Cp40, reference compound] : ____
8 to 10 µM

====

Consider the following compounds; for each one, report its kon.
- SYSTEM NAME: human C3b (Homo sapiens)
- Construct: purchased Complement Technology, Inc., Tyler, Tex
- ASSAY REMARKS: SPR binding affinity and kinetics with C3b
- ASSAY CONTEXT: 25° C., 1:1 Langmuir model; read-out: ka, association constant
Give bare numbers, in M⁻¹ s⁻¹.

CC[C@H](C)[C@H](NC(=O)[C@H](N)Cc1ccc(O)cc1)C(=O)N[C@H]1CSSC[C@@H](C(=O)N(C)[C@H](C(=O)N[C@@H](CCCCN)C(=O)N[C@@H](CCCCN)C(N)=O)[C@@H](C)CC)NC(=O)[C@H](CCCNC(=N)N)NC(=O)[C@H](Cc2c[nH]cn2)NC(=O)[C@H](C)NC(=O)CN(C)C(=O)[C@H](Cc2c[nH]c3ccccc23)NC(=O)[C@H](CC(=O)O)NC(=O)[C@H](CCC(N)=O)NC(=O)[C@H](Cc2cn(C)c3ccccc23)NC(=O)[C@H](C(C)C)NC1=O | 3.94e+06

# evaluate next
Reported kon, compound `CC[C@H](C)[C@H](NC(=O)[C@@H](Cc1ccc(O)cc1)NC(=O)CCOCCOCCOCCOCCOCCOCCOCCOCCOCCOCCOCCOC)C(=O)N[C@H]1CSSC[C@@H](C(=O)N(C)[C@H](C(N)=O)[C@@H](C)CC)NC(=O)[C@H](CCCNC(=N)N)NC(=O)[C@H](Cc2c[nH]cn2)NC(=O)[C@H](C)NC(=O)CN(C)C(=O)[C@H](Cc2c[nH]c3ccccc23)NC(=O)[C@H](CC(=O)O)NC(=O)[C@H](CCC(N)=O)NC(=O)[C@H](Cc2cn(C)c3ccccc23)NC(=O)[C@H](C(C)C)NC1=O` : ____
1e+06

====

- ASSAY REMARKS: in vivo
- ASSAY CONTEXT: male, cynomolgus monkey, sc, 2 mg/kg, t1/2
MEASUREMENT TYPE: half-life (min)
Give bare numbers, in min.

Reported half-life, compound CC[C@H](C)[C@H](NC(=O)[C@H](N)Cc1ccc(O)cc1)C(=O)N[C@H]1CSSC[C@@H](C(=O)N(C)[C@H](C(N)=O)[C@@H](C)CC)NC(=O)[C@H](CCCNC(=N)N)NC(=O)[C@H](Cc2c[nH]cn2)NC(=O)[C@H](C)NC(=O)CN(C)C(=O)[C@H](Cc2c[nH]c3ccccc23)NC(=O)[C@H](CC(=O)O)NC(=O)[C@H](CCC(N)=O)NC(=O)[C@H](Cc2cn(C)c3ccccc23)NC(=O)[C@H](C(C)C)NC1=O [Cp40, reference compound] : ____
2460

====

- ASSAY REMARKS: Pharmacokinetics in NHP plasma after single s.c. injection
- ASSAY CONTEXT: male, cynomolgus monkey, plasma, sc, 2 mg/kg, AUC0-t (0-120 h), single s.c. 2 mg/kg, NHP plasma, two animals
Consider the following compounds; for each one, report its AUC(0-t).
Give bare numbers, in µM·h.

CC[C@H](C)[C@H](NC(=O)[C@H](N)Cc1ccc(O)cc1)C(=O)N[C@H]1CSSC[C@@H](C(=O)N(C)[C@H](C(=O)N[C@@H](CCCCN)C(=O)N[C@@H](CCCCN)C(N)=O)[C@@H](C)CC)NC(=O)[C@H](CCCNC(=N)N)NC(=O)[C@H](Cc2c[nH]cn2)NC(=O)[C@H](C)NC(=O)CN(C)C(=O)[C@H](Cc2c[nH]c3ccccc23)NC(=O)[C@H](CC(=O)O)NC(=O)[C@H](CCC(N)=O)NC(=O)[C@H](Cc2cn(C)c3ccccc23)NC(=O)[C@H](C(C)C)NC1=O [Cp40-KK] | 329

# evaluate next
Reported AUC(0-t), compound CC[C@H](C)[C@H](NC(=O)[C@H](N)Cc1ccc(O)cc1)C(=O)N[C@H]1CSSC[C@@H](C(=O)N(C)[C@H](C(N)=O)[C@@H](C)CC)NC(=O)[C@H](CCCNC(=N)N)NC(=O)[C@H](Cc2c[nH]cn2)NC(=O)[C@H](C)NC(=O)CN(C)C(=O)[C@H](Cc2c[nH]c3ccccc23)NC(=O)[C@H](CC(=O)O)NC(=O)[C@H](CCC(N)=O)NC(=O)[C@H](Cc2cn(C)c3ccccc23)NC(=O)[C@H](C(C)C)NC1=O [Cp40, reference compound] : ____
233

====

- ASSAY REMARKS: Pharmacokinetics in NHP plasma after single s.c. injection
- ASSAY CONTEXT: male, cynomolgus monkey, plasma, sc, 2 mg/kg, AUCinf, single s.c. 2 mg/kg, NHP plasma, two animals
Consider the following compounds; for each one, report its AUC(0-inf).

Solved cases below.
CC[C@H](C)[C@H](NC(=O)[C@H](N)Cc1ccc(O)cc1)C(=O)N[C@H]1CSSC[C@@H](C(=O)N(C)[C@H](C(=O)N[C@@H](CCCCN)C(=O)N[C@@H](CCCCN)C(=O)N[C@@H](CCCCN)C(N)=O)[C@@H](C)CC)NC(=O)[C@H](CCCNC(=N)N)NC(=O)[C@H](Cc2c[nH]cn2)NC(=O)[C@H](C)NC(=O)CN(C)C(=O)[C@H](Cc2c[nH]c3ccccc23)NC(=O)[C@H](CC(=O)O)NC(=O)[C@H](CCC(N)=O)NC(=O)[C@H](Cc2cn(C)c3ccccc23)NC(=O)[C@H](C(C)C)NC1=O | 805 µM·h
CC[C@H](C)[C@H](NC(=O)[C@H](N)Cc1ccc(O)cc1)C(=O)N[C@H]1CSSC[C@@H](C(=O)N(C)[C@H](C(=O)N[C@@H](CCCCN)C(=O)N[C@@H](CCCCN)C(N)=O)[C@@H](C)CC)NC(=O)[C@H](CCCNC(=N)N)NC(=O)[C@H](Cc2c[nH]cn2)NC(=O)[C@H](C)NC(=O)CN(C)C(=O)[C@H](Cc2c[nH]c3ccccc23)NC(=O)[C@H](CC(=O)O)NC(=O)[C@H](CCC(N)=O)NC(=O)[C@H](Cc2cn(C)c3ccccc23)NC(=O)[C@H](C(C)C)NC1=O | 597 µM·h

# evaluate next
Reported AUC(0-inf), compound CC[C@H](C)[C@H](NC(=O)[C@H](N)Cc1ccc(O)cc1)C(=O)N[C@H]1CSSC[C@@H](C(=O)N(C)[C@H](C(N)=O)[C@@H](C)CC)NC(=O)[C@H](CCCNC(=N)N)NC(=O)[C@H](Cc2c[nH]cn2)NC(=O)[C@H](C)NC(=O)CN(C)C(=O)[C@H](Cc2c[nH]c3ccccc23)NC(=O)[C@H](CC(=O)O)NC(=O)[C@H](CCC(N)=O)NC(=O)[C@H](Cc2cn(C)c3ccccc23)NC(=O)[C@H](C(C)C)NC1=O [Cp40, reference compound] : ____
263 µM·h

====

Consider the following molecules; for each one, report its kon.
- SYSTEM NAME: human C3b (Homo sapiens, UniProt P01024)
- Construct: purchased Complement Technology, Inc., Tyler, Tex
- Sequence (P01024 23-667 limits assumed): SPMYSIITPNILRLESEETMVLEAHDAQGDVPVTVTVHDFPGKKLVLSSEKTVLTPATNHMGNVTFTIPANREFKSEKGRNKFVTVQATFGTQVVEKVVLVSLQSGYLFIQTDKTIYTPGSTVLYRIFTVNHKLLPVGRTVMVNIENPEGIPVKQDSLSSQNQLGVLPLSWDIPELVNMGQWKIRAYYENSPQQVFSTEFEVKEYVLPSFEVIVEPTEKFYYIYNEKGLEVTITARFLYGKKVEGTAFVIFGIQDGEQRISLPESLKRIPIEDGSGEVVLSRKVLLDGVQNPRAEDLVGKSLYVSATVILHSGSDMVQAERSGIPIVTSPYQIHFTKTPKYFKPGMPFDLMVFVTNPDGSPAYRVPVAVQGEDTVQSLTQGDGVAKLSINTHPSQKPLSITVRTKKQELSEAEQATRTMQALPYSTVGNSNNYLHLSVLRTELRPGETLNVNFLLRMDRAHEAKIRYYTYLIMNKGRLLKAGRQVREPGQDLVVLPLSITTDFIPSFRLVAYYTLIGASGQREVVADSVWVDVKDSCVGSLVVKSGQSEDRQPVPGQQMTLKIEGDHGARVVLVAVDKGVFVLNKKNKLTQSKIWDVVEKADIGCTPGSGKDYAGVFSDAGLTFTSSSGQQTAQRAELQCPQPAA
- Sequence (P01024 749-1663 partner limits assumed): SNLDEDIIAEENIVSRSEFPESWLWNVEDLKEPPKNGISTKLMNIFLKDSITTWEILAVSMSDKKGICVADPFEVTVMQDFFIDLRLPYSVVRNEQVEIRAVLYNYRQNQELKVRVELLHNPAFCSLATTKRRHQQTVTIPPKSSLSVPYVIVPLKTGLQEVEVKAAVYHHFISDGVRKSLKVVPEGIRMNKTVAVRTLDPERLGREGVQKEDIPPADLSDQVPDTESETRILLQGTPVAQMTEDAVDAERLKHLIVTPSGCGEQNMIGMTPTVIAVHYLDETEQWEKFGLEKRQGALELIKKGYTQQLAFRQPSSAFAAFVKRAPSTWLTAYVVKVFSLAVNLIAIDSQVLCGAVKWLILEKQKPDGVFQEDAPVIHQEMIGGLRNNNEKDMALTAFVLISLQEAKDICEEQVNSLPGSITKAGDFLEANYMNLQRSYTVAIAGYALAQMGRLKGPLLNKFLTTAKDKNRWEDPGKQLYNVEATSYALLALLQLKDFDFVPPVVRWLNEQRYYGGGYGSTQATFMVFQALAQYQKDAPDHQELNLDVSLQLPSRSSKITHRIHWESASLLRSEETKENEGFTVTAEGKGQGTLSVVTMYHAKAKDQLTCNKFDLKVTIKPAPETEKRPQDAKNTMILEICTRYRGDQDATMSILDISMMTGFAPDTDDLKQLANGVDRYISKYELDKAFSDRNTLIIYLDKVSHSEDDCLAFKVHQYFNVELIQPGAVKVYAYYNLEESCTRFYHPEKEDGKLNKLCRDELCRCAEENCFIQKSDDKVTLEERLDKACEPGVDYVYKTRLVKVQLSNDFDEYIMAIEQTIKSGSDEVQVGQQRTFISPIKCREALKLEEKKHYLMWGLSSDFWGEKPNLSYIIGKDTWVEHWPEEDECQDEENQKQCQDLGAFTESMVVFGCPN
- ASSAY REMARKS: SPR binding affinity and kinetics with C3b
- ASSAY CONTEXT: 25° C., 1:1 Langmuir model; read-out: ka, association constant

CC[C@H](C)[C@H](NC(=O)[C@H](N)Cc1ccc(O)cc1)C(=O)N[C@H]1CSSC[C@@H](C(=O)N(C)[C@H](C(=O)N[C@@H](CCCCN)C(=O)N[C@@H](CCCCN)C(=O)N[C@@H](CCCCN)C(N)=O)[C@@H](C)CC)NC(=O)[C@H](CCCNC(=N)N)NC(=O)[C@H](Cc2c[nH]cn2)NC(=O)[C@H](C)NC(=O)CN(C)C(=O)[C@H](Cc2c[nH]c3ccccc23)NC(=O)[C@H](CC(=O)O)NC(=O)[C@H](CCC(N)=O)NC(=O)[C@H](Cc2cn(C)c3ccccc23)NC(=O)[C@H](C(C)C)NC1=O | 3.83e+06 M⁻¹ s⁻¹
CC[C@H](C)[C@H](NC(=O)[C@H](N)Cc1ccc(O)cc1)C(=O)N[C@H]1CSSC[C@@H](C(=O)N(C)[C@H](C(=O)N[C@@H](CCCCN)C(N)=O)[C@@H](C)CC)NC(=O)[C@H](CCCNC(=N)N)NC(=O)[C@H](Cc2c[nH]cn2)NC(=O)[C@H](C)NC(=O)CN(C)C(=O)[C@H](Cc2c[nH]c3ccccc23)NC(=O)[C@H](CC(=O)O)NC(=O)[C@H](CCC(N)=O)NC(=O)[C@H](Cc2cn(C)c3ccccc23)NC(=O)[C@H](C(C)C)NC1=O | 1.98e+06 M⁻¹ s⁻¹

# evaluate next
Reported kon, molecule `CC[C@H](C)[C@H](NC(=O)[C@@H](Cc1ccc(O)cc1)NC(=O)CCOCCOCCOCCOCCOCCOCCOCCOCCOCCOCCOCCOCCOCCOCCOCCOCCOCCOCCOCCOCCOCCOCCOCCOC)C(=O)N[C@H]1CSSC[C@@H](C(=O)N(C)[C@H](C(N)=O)[C@@H](C)CC)NC(=O)[C@H](CCCNC(=N)N)NC(=O)[C@H](Cc2c[nH]cn2)NC(=O)[C@H](C)NC(=O)CN(C)C(=O)[C@H](Cc2c[nH]c3ccccc23)NC(=O)[C@H](CC(=O)O)NC(=O)[C@H](CCC(N)=O)NC(=O)[C@H](Cc2cn(C)c3ccccc23)NC(=O)[C@H](C(C)C)NC1=O` : ____
720000 M⁻¹ s⁻¹
